System: gastric mucosa
experiment_summary: cytoprotection test, gastric ulceration caused by absolute ethanol
Type: in vivo, Sprague Dawley rats
condition_summary: rat; oral route, 1 hour before absolute ethanol; read-out: ED50% oral route
recorded_endpoint: ED50

Supply ED50 measured with gastric mucosa for CCC(Cn1ccnc1C)(c1ccccc1)N(C)C (centres unmarked) .
12 mg/kg

Supply ED50 measured with gastric mucosa for CCC(CN(C)C)(c1ccccc1)n1ccnc1 (centres unmarked) .
7.1 mg/kg

Supply ED50 measured with gastric mucosa for CCC(Cn1ccnc1)(c1ccccc1)N(C)C (centres unmarked) .
13 mg/kg

Supply ED50 measured with gastric mucosa for CCC(CN(C)C)(c1ccccc1)n1cnc(-c2ccccc2)c1-c1ccccc1 (centres unmarked) .
26 mg/kg

Supply ED50 measured with gastric mucosa for CCC(CN(C)C)(c1ccccc1)n1ccnc1C (centres unmarked) .
12 mg/kg

----------
assay_target: thromboxane synthetase (Oryctolagus cuniculus, UniProt G1TAZ9)
Construct: carried out in vitro on washed rabbit platelets; endogenous in cells; host or cells: washed rabbit platelets
Sequence (G1TAZ9 1-530): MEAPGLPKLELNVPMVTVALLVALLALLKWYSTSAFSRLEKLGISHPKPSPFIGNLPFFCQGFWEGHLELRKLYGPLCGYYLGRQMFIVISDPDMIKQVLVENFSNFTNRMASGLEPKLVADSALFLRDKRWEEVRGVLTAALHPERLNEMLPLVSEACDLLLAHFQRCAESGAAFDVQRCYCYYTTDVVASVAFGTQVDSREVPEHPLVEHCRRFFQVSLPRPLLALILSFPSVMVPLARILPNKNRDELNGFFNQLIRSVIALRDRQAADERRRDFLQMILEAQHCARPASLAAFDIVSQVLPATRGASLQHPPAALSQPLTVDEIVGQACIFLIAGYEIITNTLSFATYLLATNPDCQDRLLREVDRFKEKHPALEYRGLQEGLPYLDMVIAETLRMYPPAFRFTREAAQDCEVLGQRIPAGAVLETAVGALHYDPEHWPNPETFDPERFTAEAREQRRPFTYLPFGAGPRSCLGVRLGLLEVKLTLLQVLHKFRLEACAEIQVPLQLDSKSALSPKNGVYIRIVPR
experiment_summary: inhibition of TXB2 synthesis (thromboxane synthetase) in washed rabbit platelets
Type: cell-based
recorded_endpoint: pIC50
Please treat pIC50 as minus the base-10 logarithm of the molar concentration.

Give me measured pIC50, please, for this molecule: c1ccc(Cn2ccnc2)cc1 [1-Benzyl-Imidazole, 1-benzyl imidazole, reference compound]
4.87

----------
Test system: gastric mucosa
experiment_summary: cytoprotection test, gastric ulceration caused by absolute ethanol
Assay type: in vivo, Sprague Dawley rats
condition_summary: sc; rat; s.c. route, 30 minutes before absolute ethanol; read-out: ED50% s.c. route
Would you kindly list ED50 for each of these molecules?
Write the value in mg/kg as a bare number.

Give me measured ED50, please, for this molecule: CCCCCC(CN(C)C)(c1ccccc1)n1ccnc1 (stereo not drawn)
9

Give me measured ED50, please, for this molecule: CCCCCC(Cn1ccnc1)(c1ccccc1)N(C)C (stereo not drawn)
25

Give me measured ED50, please, for this molecule: CCC(Cn1ccnc1)(c1ccccc1)N(C)C (single isomer, unassigned) [EX. 12]
5.3

Give me measured ED50, please, for this molecule: CCC(Cn1ccnc1C)(c1ccccc1)N(C)C (stereo not drawn)
12.6

Give me measured ED50, please, for this molecule: CCC(Cc1ccccc1)(CN(C)C)n1ccnc1 (stereo not drawn)
8.5

Give me measured ED50, please, for this molecule: CCC(CN(C)C)(c1ccccc1)n1ccnc1C (stereo not drawn)
10
